# experiment_summary: Selectivity index, ratio of CC50 for human HepG2A16 cells by MTT assay to IC50 for multidrug-resistant Plasmodium falciparum FCR-3
# Type: toxicity
# condition: HepG2A16 cells, read-out: Ratio CC50/IC50
Listed compounds paired with reported selectivity ratio

compound: OC(CCN1CCN(c2ccc(F)cc2)CC1)c1ccc(F)c2ccccc12 (stereo unspecified)
selectivity ratio: 7
--
compound: Nc1ccc(N2CCC(NCCC(O)c3ccc(F)c4ccccc34)CC2)c(C(F)(F)F)c1 (stereo unspecified)
selectivity ratio: 137
--
compound: Oc1ccc(C(O)CCN2CC=C(c3ccc(F)cc3)CC2)cc1 (stereo unspecified)
selectivity ratio: 88
--
compound: OC(CCN1CCN(C(c2ccccc2)c2ccccc2)CC1)c1ccc(F)c(F)c1 (stereo unspecified)
selectivity ratio: 147
--
compound: OC(CCN1CC=C(c2ccc(F)cc2)CC1)c1ccccc1 (stereo unspecified)
selectivity ratio: 13
--
compound: OC(CCN1CC=C(c2ccc(F)cc2)CC1)c1ccc(F)c(Cl)c1 (stereo unspecified)
selectivity ratio: 8
--
compound: N#Cc1ccc(C(O)CCNC2CCN(c3ccc([N+](=O)[O-])cc3C(F)(F)F)CC2)cc1 (stereo unspecified)
selectivity ratio: 11
--
compound: O=[N+]([O-])c1ccccc1N1CCN(CCC(O)c2ccc(F)c3ccccc23)CC1 (stereo unspecified)
selectivity ratio: 8
--
compound: O=[N+]([O-])c1ccc(N2CCC(NCCC(O)c3ccccc3)CC2)c(C(F)(F)F)c1 (stereo unspecified)
selectivity ratio: 15
--
compound: OC(CCN1CCN(C(c2ccccc2)c2ccccc2)CC1)c1ccc(F)cc1 (stereo unspecified)
selectivity ratio: 406
--
compound: O=[N+]([O-])c1ccc(N2CCC(NCCC(O)c3ccc(F)cc3)CC2)c(C(F)(F)F)c1 (stereo unspecified)
selectivity ratio: 22
